Target: T1, LASV Josiah (lineage IV) glycoprotein, full-length GP (Lassa virus, Josiah strain, UniProt P08669 2-491)
T1 sequence: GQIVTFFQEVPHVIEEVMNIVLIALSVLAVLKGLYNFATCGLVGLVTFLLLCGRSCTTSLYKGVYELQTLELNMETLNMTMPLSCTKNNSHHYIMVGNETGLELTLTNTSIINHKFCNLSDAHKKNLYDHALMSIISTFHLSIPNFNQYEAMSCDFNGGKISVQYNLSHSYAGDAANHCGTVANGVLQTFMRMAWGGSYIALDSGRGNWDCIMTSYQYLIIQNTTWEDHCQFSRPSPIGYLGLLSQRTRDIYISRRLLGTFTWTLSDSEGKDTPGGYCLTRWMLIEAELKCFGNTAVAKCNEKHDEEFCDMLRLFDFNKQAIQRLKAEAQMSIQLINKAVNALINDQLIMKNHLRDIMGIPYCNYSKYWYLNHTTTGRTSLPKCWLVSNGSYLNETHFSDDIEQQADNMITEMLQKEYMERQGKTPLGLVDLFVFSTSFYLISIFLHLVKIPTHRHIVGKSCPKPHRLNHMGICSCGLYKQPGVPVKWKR
Test: cell-based or functional assay
quantity.measured: IC80 (neutralization) (µg/mL)
Please reply with the bare figure in µg/mL and do not write the unit itself.

Consider the binder 9.8A (antibody, V domains shown) VH: EVQLVQSGGRLVQPGGSLRLSCVASGFTFSSHAMSWVRQAPGKGLEWVSGFSGSSGTTKYADSVKGRFTISRDNSKKTLYLQMNSLRAEDTAVYYCAKGFSPFRGVQFPYFDYWGQGTLVTVSS VL: DIVMTQSPSTLSASVGDRVTITCRASQSIDRWLAWYQQKPGKAPKLLIYQASSLERGVPSRFSGSGSGTEFTLTISSLQPDDFATYYCQQYNGYPLTFGGGTKVEIKR and give its measured IC80 (neutralization).
0.253
